System: Rhizoctonia oryzae
Experiment: Test G: turf brown patch, preventive spray on creeping bent grass seedlings
Details: 40 ppm (*)
Marks after values point to notes of the source that are not given here.
recorded endpoint: Test G disease control rating

molecule	reported
CC(C)Cn1c(-c2cccnc2Cl)c(Cl)nc(-n2cccn2)c1=O	0* %
CCc1ccccc1-c1c(Cl)nc(-n2cccn2)c(=O)n1CC(C)C	16* %
CC(C)Cn1c(-c2c(F)c(F)c(F)c(F)c2F)c(Cl)nc(-n2cccn2)c1=O	95* %
Cc1ccn(-c2nc(C)c(-c3c(F)cccc3F)n(CC(C)C)c2=O)n1	68* %
CC[C@H](C)Cn1c(-c2c(F)cc(F)cc2F)c(Cl)nc(-n2ccc(C)n2)c1=O	99* %
CC(C)Cn1c(-c2cccc3ccccc23)c(Cl)nc(-n2cccn2)c1=O	0* %
CC(C)(C)Cn1c(-c2c(F)cccc2F)c(Cl)nc(-n2cccn2)c1=O	49* %
CCC(C)Cn1c(-c2ccc(F)cc2Cl)c(Cl)nc(-n2cncn2)c1=O (centres unmarked)	16* %

----------
System: Erysiphe graminis f. sp. tritici
Assay: Test L: wheat powdery mildew, preventive spray on wheat seedlings
Details: 40 ppm (*)
Marks after values point to notes of the source that are not given here.
Listing of entries alongside the reported Test L disease control rating.
recorded endpoint: Test L disease control rating

molecule	study system	reported
COC(=O)Cn1c(-c2c(F)cccc2F)c(Cl)nc(-n2cccn2)c1=O	Erysiphe graminis f. sp. tritici	0* %
CC(C)Cn1c(-c2cccnc2Cl)c(Cl)nc(-n2cccn2)c1=O	Erysiphe graminis f. sp. tritici	0* %
CCC(C)Cn1c(-c2ccc(F)cc2Cl)c(Cl)nc(-n2cncn2)c1=O (centres unmarked)	Erysiphe graminis f. sp. tritici	100* %
N#Cc1nc(Cl)c(-c2c(F)cccc2F)n(-c2ccccc2)c1=O	Erysiphe graminis f. sp. tritici	0* %
CCc1nccn1-c1nc(Cl)c(-c2c(F)cccc2F)n(CC(C)CC)c1=O (centres unmarked)	Erysiphe graminis f. sp. tritici	0* %

----------
Tested on: Puccinia recondita f. sp. tritici
Assay: Test K: wheat leaf rust, preventive spray on wheat seedlings
Conditions: 200 ppm
recorded endpoint: Test K disease control rating (%)

compound	recorded endpoint	measurement unit	reported
CC(C)Cn1c(C(C)C)c(Cl)nc(-n2cccn2)c1=O	Test K disease control rating	%	98
CC(C)Cn1c(-c2cccc(Cl)c2Cl)c(Cl)nc(-n2cncn2)c1=O	Test K disease control rating	%	67
CC(C)Cn1c(-c2cc(F)ccc2F)c(Cl)nc(-n2cccn2)c1=O	Test K disease control rating	%	99
CC(C)Cn1c(-c2ccc(OC(F)(F)F)cc2)c(Cl)nc(-n2cccn2)c1=O	Test K disease control rating	%	0
COc1ccc(-c2c(Cl)nc(-n3cccn3)c(=O)n2CC(C)C)cc1	Test K disease control rating	%	89
CCC(C)Cn1c(-c2c(F)cccc2F)c(Cl)nc(-n2ccc(Br)n2)c1=O (stereo not drawn)	Test K disease control rating	%	98
CCCC(C)n1c(-c2c(F)cccc2F)c(Cl)nc(-n2cccn2)c1=O (stereo not drawn)	Test K disease control rating	%	100
O=c1c(-n2cncn2)nc(Cl)c(-c2c(F)cccc2F)n1-c1ccccc1	Test K disease control rating	%	27
Cc1cccc(C)c1-c1c(Cl)nc(-n2cncn2)c(=O)n1CC(C)C	Test K disease control rating	%	97

----------
System: Septoria nodorum
Test: Test H: wheat glum blotch, preventive spray on wheat seedlings
Conditions: 40 ppm (marked *); 100 = 100% disease control, 0 = no control
Marks after values point to notes of the source that are not given here.
Listing of entries alongside the reported Test H disease control rating.

smiles entry	study system	Test H disease control rating
CC(C)Cn1c(-c2ccc(F)cc2Cl)c(Cl)nc(-n2cccn2)c1=O	Septoria nodorum	100* %
N#Cc1nc(Cl)c(-c2c(F)cccc2F)n(Cc2ccc(F)cc2)c1=O	Septoria nodorum	0* %
O=c1c(-n2cccn2)nc(Cl)c(-c2c(F)cccc2F)n1-c1cccc(F)c1F	Septoria nodorum	99* %
CSCCn1c(-c2c(F)cccc2F)c(Cl)nc(-n2ccc(C)n2)c1=O	Septoria nodorum	0* %

----------
System: Puccinia recondita f. sp. tritici
Experiment: Test K: wheat leaf rust, preventive spray on wheat seedlings
Conditions: 40 ppm (marked *); 100 = 100% disease control, 0 = no control
Marks after values point to notes of the source that are not given here.
Listing of entries alongside the reported Test K disease control rating.

compound	Test K disease control rating
Cc1cccc(-n2c(-c3c(F)cccc3F)c(Cl)nc(-n3ccc(C)n3)c2=O)c1	95* %
O=c1c(-n2cccn2)nc(Cl)c(-c2c(F)cccc2F)n1-c1ccccc1OC(F)(F)F [compound 396]	94* %
Cc1ccccc1-n1c(-c2c(F)cccc2F)c(Cl)nc(-n2cccn2)c1=O	98* %
Cc1cc(C)c(-c2c(Cl)nc(-n3cccn3)c(=O)n2CC(C)C)c(C)c1	59* %
NC(=O)c1nc(Cl)c(-c2c(F)ccc(F)c2F)n(-c2ccccc2)c1=O	100* %
O=c1c(-n2cccn2)nc(Cl)c(-c2c(F)cccc2F)n1-c1ccccc1OC(F)(F)F [compound 397]	80* %
CCC(C)Cn1c(-c2c(F)cc(F)cc2F)c(Cl)nc(C(=O)NOC)c1=O (stereo not drawn)	100* %
Cc1ccn(-c2nc(Cl)c(-c3c(F)cc(F)cc3F)n(-c3cccc(F)c3F)c2=O)n1	100* %
Cc1ccn(-c2nc(Cl)c(-c3c(F)cc(F)cc3F)n(-c3cc(F)cc(F)c3)c2=O)n1	100* %
CCCCn1c(-c2ccc(F)cc2Cl)c(Br)nc(N2CCC=N2)c1=O	0* %
O=c1c(-n2cccn2)nc(Cl)c(-c2c(F)cc(F)cc2F)n1Cc1ccccc1Br	100* %
O=c1c(-n2cccn2)nc(Cl)c(-c2c(F)cc(F)cc2F)n1Cc1ccccc1C(F)(F)F	97* %
CC[C@H](C)Cn1c(-c2ccc(F)cc2Cl)c(Cl)nc(-n2ccc(C)n2)c1=O	100* %
CC(C)Cn1c(-c2cccc(C#N)c2)c(Cl)nc(-n2cncn2)c1=O	0* %
O=c1c(-n2cccn2)nc(Cl)c(-c2c(F)cccc2F)n1CCBr	94* %
O=c1c(-n2cccn2)nc(Cl)c(-c2c(F)cccc2F)n1-c1ccccc1C(F)(F)F	99* %
O=c1c(-n2cccn2)nc(Cl)c(-c2c(F)cccc2F)n1-c1cccc(F)c1	95* %
O=c1c(-n2cccn2)nc(Cl)c(-c2c(F)cccc2F)n1CCF	91* %
Cc1ccn(-c2nc(Cl)c(-c3c(F)cccc3F)n(-c3cccc(F)c3F)c2=O)n1	100* %
Cc1ccn(-c2nc(Cl)c(-c3c(F)cccc3F)n(-c3ccccc3F)c2=O)n1	95* %
O=c1c(-n2cccn2)nc(Cl)c(-c2c(F)cccc2F)n1Cc1ccccc1F [compound 336]	100* %
CC(C)Cn1c(-c2c(Cl)cc(Cl)cc2Cl)c(Cl)nc(-n2cccn2)c1=O	97* %
Cc1ccn(-c2nc(Cl)c(-c3c(F)cccc3F)n(-c3cccc(F)c3)c2=O)n1	99* %
COC(=O)Cn1c(-c2c(F)cccc2F)c(Cl)nc(-n2ccc(C)n2)c1=O	9* %
Cc1ccn(-c2nc(Cl)c(-c3c(F)cc(F)cc3F)n(-c3ccccc3F)c2=O)n1	99* %
Cc1ccn(-c2nc(Cl)c(-c3c(F)cc(F)cc3F)n(-c3cccc(Cl)c3)c2=O)n1	100* %
Cc1ccn(-c2nc(Cl)c(-c3c(F)cccc3F)n(-c3ccc(F)cc3F)c2=O)n1	100* %
O=c1c(-n2cccn2)nc(Cl)c(-c2c(F)cc(F)cc2F)n1-c1ccc(C(F)(F)F)cc1	97* %
Cc1ccn(-c2nc(Cl)c(-c3c(F)cc(F)cc3F)n(-c3ccccc3)c2=O)n1	99* %
CC[C@H](C)Cn1c(-c2ccc(F)cc2Cl)c(Br)nc(-n2cccn2)c1=O	100* %
O=c1c(-n2cccn2)nc(Cl)c(-c2c(F)cccc2F)n1-c1ccccc1Br	100* %
O=c1c(-n2cccn2)nc(Cl)c(-c2c(F)cc(F)cc2F)n1-c1ccccc1	99* %
CCCCn1c(-c2ccc(F)cc2Cl)c(Cl)nc(N2CCC=N2)c1=O	68* %

----------
Tested on: Colletotrichum orbiculare
Experiment: Test B: cucumber Colletotrichum anthracnose, preventive spray on cucumber seedlings
Settings: 40 ppm (marked *); 100 = 100% disease control, 0 = no control
Marks after values point to notes of the source that are not given here.
Listing of entries alongside the reported Test B disease control rating.

molecule	Test B disease control rating
Cc1ccn(-c2nc(Cl)c(-c3c(F)cc(F)cc3F)n(-c3ccc(F)c(F)c3)c2=O)n1	99* %
O=c1c(-n2cccn2)nc(Cl)c(-c2c(F)cc(F)cc2F)n1-c1ccccc1	99* %
CSCC(C)n1c(-c2c(F)cccc2F)c(Cl)nc(-n2ccc(C)n2)c1=O (stereo not drawn)	0* %
CCC(C)Cn1c(-c2c(F)cc(F)cc2F)c(Cl)nc(C(N)=O)c1=O (stereo not drawn)	91* %
O=c1c(-n2cccn2)nc(Cl)c(-c2c(F)cc(F)cc2F)n1-c1ccc(F)cc1	98* %
Cc1ccn(-c2nc(Cl)c(-c3c(F)cccc3F)n(-c3ccc(F)c(F)c3)c2=O)n1	98* %
O=c1c(-n2cccn2)nc(Cl)c(-c2c(F)cc(F)cc2F)n1-c1cc(F)c(F)c(F)c1	97* %
O=c1c(-n2cccn2)nc(Cl)c(-c2c(F)cccc2F)n1C1CCC1	0* %
O=c1c(-n2cccn2)nc(Cl)c(-c2c(F)cccc2F)n1Cc1cccc(Cl)c1	47* %
O=c1c(-n2cccn2)nc(Cl)c(-c2c(F)cccc2F)n1-c1ccc(F)c(F)c1	67* %
O=c1c(-n2cccn2)nc(Cl)c(-c2c(F)cccc2F)n1-c1ccccc1Br	0* %
COCCn1c(-c2c(F)cccc2F)c(Cl)nc(-n2ccc(C)n2)c1=O	0* %
CC(C)Cn1c(-c2c(Cl)cc(C(F)(F)F)cc2Cl)c(Cl)nc(-n2cccn2)c1=O	0* %
Cc1cccc(-n2c(-c3c(F)cccc3F)c(Cl)nc(-n3ccc(C)n3)c2=O)c1	37* %
CCC(C)Cn1c(-c2c(F)cc(F)cc2F)c(Cl)nc(C(=O)NOC)c1=O (stereo not drawn)	71* %
O=c1c(-n2cccn2)nc(Cl)c(-c2c(F)cccc2F)n1-c1cccc(F)c1	76* %
O=c1c(-n2cccn2)nc(Cl)c(-c2c(F)cc(F)cc2F)n1Cc1ccccc1Br	88* %
O=c1c(-n2cccn2)nc(Cl)c(-c2c(F)cc(F)cc2F)n1-c1cc(Cl)cc(Cl)c1	0* %
Cc1ccc(-n2c(-c3c(F)cccc3F)c(Cl)nc(-n3cccn3)c2=O)cc1	37* %
Cc1ccc(-n2c(-c3c(F)cccc3F)c(Cl)nc(-n3cccn3)c2=O)c(C)c1	0* %
N#Cc1nc(Cl)c(-c2c(F)cccc2F)n(Cc2ccc(F)cc2)c1=O	0* %
CCC(C)Cn1c(-c2c(F)cccc2F)c(Cl)nc(C(=O)NCCO)c1=O (stereo not drawn)	0* %
CCn1c(-c2ccc(F)cc2Cl)c(Cl)nc(C(N)=O)c1=O	0* %
CCCCn1c(-c2ccc(F)cc2Cl)c(Br)nc(N2CCC=N2)c1=O	0* %
Cc1ccn(-c2nc(Cl)c(-c3c(F)cc(F)cc3F)n(-c3ccc(Cl)cc3)c2=O)n1	100* %
Cc1ccn(-c2nc(Cl)c(-c3ccc(F)cc3Cl)n(-c3ccccc3)c2=O)n1	78* %
Cc1ccn(-c2nc(Cl)c(-c3c(F)cc(F)cc3F)n(-c3ccccc3Cl)c2=O)n1	100* %
O=c1c(-n2cccn2)nc(Cl)c(-c2c(F)cc(F)cc2F)n1Cc1ccc(Br)cc1	31* %
CCCCn1c(-c2ccc(F)cc2Cl)c(Br)nc(-n2ccc(C)n2)c1=O	0* %
Cc1ccc(-n2c(-c3c(F)cccc3F)c(Cl)nc(-n3ccc(C)n3)c2=O)cc1	0* %
O=c1c(-n2cccn2)nc(Cl)c(-c2c(F)cc(F)cc2F)n1-c1ccc(C(F)(F)F)cc1	9* %
O=c1c(-n2cccn2)nc(Cl)c(-c2c(F)cc(F)cc2F)n1-c1ccccc1Cl	100* %
COC(=O)Cn1c(-c2c(F)cccc2F)c(Cl)nc(-n2ccc(C)n2)c1=O	0* %
